Can you tell me Pigweed plant response rating for the items I'm about to list?
tested on: pigweed (Amaranthus retroflexus); assay: Test A preemergence, pigweed; format: in vivo; details: 125 g ai/ha, 0 to 100 scale, 0 is no effect, 100 is complete control

Give the value of Pigweed plant response rating reported for the following: Cc1cccc2oc(C(C)Nc3ncc(C(F)(F)F)c(N)n3)cc12 (stereo not drawn) [Compound 101] 70

Give the value of Pigweed plant response rating reported for the following: CC(COc1cc(F)cc(F)c1)Nc1ncc(C(F)(F)F)c(N)n1 (stereo not drawn) [Compound 33] 20

Give the value of Pigweed plant response rating reported for the following: CC(COc1cccc(F)c1)Nc1ncc(C(F)(F)F)c(N)n1 (stereo not drawn) [Compound 37] 50

Give the value of Pigweed plant response rating reported for the following: Nc1nc(NC(c2cc3ccccc3s2)C2CC2)ncc1C(F)(F)F (racemic) [Compound 94] 60

Give the value of Pigweed plant response rating reported for the following: Cc1cccc(OCC(C)Nc2ncc(C(F)(F)F)c(N)n2)c1 (stereo not drawn) [Compound 32] 10

Give the value of Pigweed plant response rating reported for the following: CC(F)c1nc(N[C@H](C)c2cc3ccccc3o2)nc(N)c1C(F)(F)F (stereo partly drawn) [Compound 112] 80

Give the value of Pigweed plant response rating reported for the following: C[C@H](Nc1ncc(C(F)(F)F)c(N)n1)c1csc2ccccc12 [Compound 42] 0

Give the value of Pigweed plant response rating reported for the following: CC[C@@H](Nc1ncc(C(F)(F)F)c(N)n1)c1cc2ccc(F)cc2o1 [Compound 63] 90

Give the value of Pigweed plant response rating reported for the following: C[C@H](Nc1nc(N)c(C(F)(F)F)c(C(F)(F)F)n1)c1cc2ccccc2o1 [Compound 66] 0
